quantity_kind: melting point (°C)
Your answer is read as °C, so omit the unit and give the number.

Which melting point value belongs to Cl.NCCCCCCCCCCCC=C(F)C(=O)O [Compound No. 10, 14-amino-2-fluoro-tetradec-2-enoic acid] ? 148.5

Which melting point value belongs to Cl.NCCCCCCC=C(F)C(=O)O [Compound No. 9, 9-amino-2-fluoro-non-2-enoic acid] ? 120

Which melting point value belongs to Cl.NCCCCCC/C=C/C(=O)O [Compound No. 8, (E)-9-amino-non-2-enoic acid] ? 104

Which melting point value belongs to Cl.NCCCCCCCCCCC/C=C/C(=O)O [Compound No. 11, (E)-14-amino-tetradec-2-enoic acid] ? 153
